Source of measurements: patent US12129247B2

assay: Levodopa pharmacokinetics in Parkinson's Disease patients after single COMPOUND A 25, 50, 100 mg (Example 3c); type: in vivo, human (Parkinson's Disease patients); conditions: human, in vivo, oral, 100 mg, Day 2, 24 h before administration of Compound A, Group 4 (100 mg group); read-out: levodopa AUC0-6
OBSERVED PROPERTY: AUC(0-t) (ng·h/mL)

{"COMPOUND": "N[C@@H](Cc1ccc(O)c(O)c1)C(=O)O [levodopa, reference compound]", "EXPERIMENTAL VALUE": 4140}

====

assay: Levodopa pharmacokinetics in Parkinson's Disease patients after single COMPOUND A 25, 50, 100 mg (Example 3c); assay type: in vivo, human (Parkinson's Disease patients); conditions: human, in vivo, oral, 25 mg, Day 2, 24 h before administration of Compound A, Group 2 (25 mg group); read-out: levodopa AUC0-6

{"COMPOUND": "N[C@@H](Cc1ccc(O)c(O)c1)C(=O)O [levodopa, reference compound]", "UNIT TEXT": "ng·h/mL", "AUC(0-t)": 4290}
